# experiment-notes: Phase 1 combination study: MK-2206 pharmacokinetics
# Type: in vivo, human
# protocol-conditions: human, plasma, oral, first dose; arm 1 carboplatin AUC 6 + paclitaxel 200 mg/m^2; MK-2206 45 mg QOD; 6 patients; read-out: T max, median (range)
value-kind: Tmax

What does the data say about its Tmax? Entry: NC1(c2ccc(-c3nc4ccn5c(=O)[nH]nc5c4cc3-c3ccccc3)cc2)CCC1 [MK-2206]
4 h

---

# experiment-notes: Phase 1 combination study: MK-2206 pharmacokinetics
# Format: in vivo, human
# protocol-conditions: human, plasma, oral, first dose; arm 3 erlotinib 150 mg QD; MK-2206 135 mg QW; 6 patients; read-out: t 1/2, harmonic mean ± pseudo SD (converted)
value-kind: half-life (h)
# output: bare number, implied unit h

Request the reported half-life associated with `NC1(c2ccc(-c3nc4ccn5c(=O)[nH]nc5c4cc3-c3ccccc3)cc2)CCC1`
50.2
